# System: A. baumannii ATCC 17978
Where a name gives a salt, the structure may show the parent alone.
Measured Attribute: MIC (µg/mL)
The reply should contain only the number, in µg/mL.

// solved cases for MIC follow
Cc1cccc(C(CCNCCCN)c2cn(C3CCCCC3)c3cc(Br)ccc23)c1.Cl.Cl (centres unmarked) [Compound 357] :: 4
Cc1cccc(-c2ccc3c(c2)c(CCCNCC(O)CN)cn3C2CCCCC2)c1 (centres unmarked) [Compound 385] :: 4
Cc1cccc(C(CCNC2CCC(N)CC2)c2cn(CC34CC5CC(CC(C5)C3)C4)c3ccccc23)c1 (centres unmarked) [Compound 232, hydrochloride salt] :: 8
Cc1cccc(-c2ccc3c(c2)c(CCCNCCCN)cn3C2CCCCC2)c1.Cl.Cl [Compound 360] :: 4

Here is the next item to consider.
Enter reported MIC observed with A. baumannii ATCC 17978 for Cc1cccc(C(CCN[C@H]2CC[C@H](N)CC2)c2cn(CC3CCCCC3)c3ccccc23)c1 (some centres unmarked) [Compound 199, hydrochloride] 8

* * *

# System: Staphylococcus aureus (ATCC25923)
Where a name gives a salt, the structure may show the parent alone.
// NB: equality with 8 µg/mL counts as Condition not met; only MIC strictly below is Condition met

Cl.N[C@H]1CC[C@H](NC(=O)CC(c2cccc(Cl)c2)c2cn(CC3CCCCC3)c3ccccc23)CC1 (stereo partly drawn) :: Condition met
Cl.O=C(CCc1cn(CC2CCCCC2)c2ccccc12)NCCC1CCNCC1 :: Condition not met
Cc1cccc(C(CC(=O)NCC2CCC(N)CC2)c2cn(CC3CCCCC3)c3ccccc23)c1.Cl (stereo not drawn) :: Condition not met

Could you please tell me whether MIC recorded for `Cl.O=C(CCc1cn(CC2CCC(F)(F)CC2)c2ccc(Br)cc12)NC1CCNCC1` is less than 8 µg/mL? Condition not met

Could you please tell me whether MIC recorded for N[C@H]1CC[C@@H](NC(=O)c2coc(CN(CCc3c[nH]c4ccccc34)Cc3ccc(F)cc3)n2)CC1 [Compound 61, hydrochloride salt] is less than 8 µg/mL? Condition not met

Could you please tell me whether MIC recorded for Cc1cccc(C(CC(=O)N[C@H]2CC[C@H](N)CC2)c2cn(CC3CCCCC3)c3ccc(Br)cc23)c1.Cl (stereo partly drawn) is less than 8 µg/mL? Condition met

Could you please tell me whether MIC recorded for Cc1cccc(C(CC(=O)NC2CCNC(=O)C2)c2cn(CC3CCCCC3)c3ccc(Br)cc23)c1 (stereo not drawn) [Compound 296, hydrochloride salt] is less than 8 µg/mL? Condition not met

Could you please tell me whether MIC recorded for Cl.N[C@H]1CC[C@H](NCCC(c2cn(CC3CCCCC3)c3ccccc23)C2CCCCC2)CC1 (stereo partly drawn) is less than 8 µg/mL? Condition met

Could you please tell me whether MIC recorded for Cl.NC1CCC(NC(=O)CCc2cn(CC3CCCCC3)c3ccc(-c4ccccc4Cl)cc23)CC1 (stereo not drawn) is less than 8 µg/mL? Condition met

Could you please tell me whether MIC recorded for Cc1cccc(C(CC(=O)NC2CCNCC2)c2cn(CC3CCOCC3)c3ccc(Br)cc23)c1.Cl (stereo not drawn) is less than 8 µg/mL? Condition not met

Could you please tell me whether MIC recorded for COc1ccccc1-c1ccc2c(c1)c(C(CC(=O)N[C@H]1CC[C@H](N)CC1)c1cccc(C)c1)cn2CC1CCCCC1.Cl (stereo partly drawn) is less than 8 µg/mL? Condition not met

Could you please tell me whether MIC recorded for Cc1cccc(C(CC(=O)NC2CCC(N)CC2)c2cn(CC3CCCCC3)c3cc(Br)ccc23)c1.Cl (stereo not drawn) is less than 8 µg/mL? Condition met

Could you please tell me whether MIC recorded for Cc1cccc(C(CCN[C@H]2CC[C@H](N)CC2)c2cn(CC3CCCC3)c3ccccc23)c1 (stereo partly drawn) [Compound 164, hydrochloride salt] is less than 8 µg/mL? Condition met

# credit: patent US20210246115A1
